The values you see were collected from patent US20160152728A1.

Each item that follows carries a reported cytotoxicity improvement factor relative to parental TandAb.
assayed.system: T1, EGFRvIII expressed on cells (CHO^EGFRvIII, F98^EGFRvIII) (UniProt P00533 25-1210)
T1 construct: whole, on cells; the vIII deletion must be applied; also called deletion mutant EGFRvIII
assay: cell-based or functional assay
Your answer is read as fold, so omit the unit and give the number.

[[record]]
binder = "EGFRvIII/CD3 TandAb with EGFRvIII binding domain ABC470, domain order (i) VL^CD3(v64)-VH^EGFRvIII-VL^EGFRvIII-VH^CD3(v64) (bispecific antibody, part only; not given: CD3 v64 domain and linkers, not shown: small tags and cut ends) chain, part: EVQLVQSGAEVKKPGESLKISCKGSGYSFNSYWIGWVRQMPGKGLEWMGIIYPGDSDTRYSPSFQGQVTISADKSISTAYLQWSSLKASDTAMYYCARLGSSWTNDAFDIWGQGTLVTVSSSYELTQPPSVSVSPGQTARITCSGDALDKQYAYWYQQKPGQAPVLVIYKDSERPSGIPERFSGSSSGTTVTLTISGVQAEDEADYYCQSVDSSETYVVFGGGTKLTVL"
measured_value = 6.8


Return cytotoxicity improvement factor relative to parental TandAb (reported value) for this binder: EGFRvIII/CD3 TandAb with EGFRvIII binding domain ABC472, domain order (i) VL^CD3(v64)-VH^EGFRvIII-VL^EGFRvIII-VH^CD3(v64) (bispecific antibody, part only; not given: CD3 v64 domain and linkers, not shown: small tags and cut ends) chain, part: EVQLVQSGAEVKKPGESLKISCKGSGYSFGYYWIGWVRQMPGKGLEWMGIIYPGDSHTRYSPSFQGQVTISADKSISTAYLQWSSLKASDTAMYYCARLGSSWTNDAFDIWGQGTLVTVSSSYELTQPPSVSVSPGQTARITCSGDALPKQYAYWYQQKPGQAPVLVIYKDTERPSGIPERFSGSSSGTTVTLTISGVQAEDEADYYCQSVDSSGTQVVFGGGTKLTVL
6.5
